Source of measurements: ChEMBL document CHEMBL4680134

EXPERIMENTAL_SYSTEM: Multidrug efflux pump subunit AcrB (Escherichia coli (strain K12))
METHOD_NOTES: Inhibition of AcrB in Escherichia coli BW25113 assessed as potentiation of chloramphenicol induced antibacterial activity by measuring chloramphenicol MIC at 32 ug/ml measured after 18 hrs by checkerboard titration method (reference value: 8 ug/ml)
CONDITION_NOTES: dose 32.0 µg/ml
EXPERIMENTAL_READOUT: MIC (µg/mL)
State just the number; it will be interpreted in µg/mL.

Q) Under Multidrug efflux pump subunit AcrB (Escherichia coli (strain K12)): MIC value of Oc1ccc(CCCc2ccc(O)c(O)c2)cc1O ?
A) 8

Q) How about Oc1ccc(CCCCc2ccc(O)c(O)c2)cc1O ?
A) 8

Q) // query: C[C@H](Cc1ccc(O)c(O)c1)[C@@H](C)Cc1ccc(O)c(O)c1
A) 8

Q) Would you kindly repeat that for Oc1ccc(CCCCc2ccc(Cl)cc2)cc1O ?
A) 16

Q) Proceed to O=C(NCCc1ccc(O)c(O)c1)c1ccccc1O
A) 8

Q) Continue with O=C(NCCc1ccc(O)c(O)c1)c1cc(O)c(O)c(O)c1
A) 4

Q) Another: Oc1ccc(CCCCc2cc(O)c(O)c(O)c2)cc1O
A) 8

Q) Also check Oc1ccc(CCCCc2ccccc2O)cc1O
A) 4

Q) What do we get for O=C(NCCc1ccc(O)c(O)c1)c1ccc(Br)cc1 ?
A) 8

Q) Try the compound Oc1ccc(CCCCc2cc3cccc4ccc5cccc2c5c43)cc1O
A) 8

Q) Same again, this time with Nc1ccc(C(=O)NCCc2ccc(O)c(O)c2)cc1
A) 4

Q) And the next one, O=C(NCCc1ccc(O)c(O)c1)c1ccc(C(F)(F)F)cc1 ?
A) 8

Q) Entry Oc1ccc(CCCCCCc2ccc(O)c(O)c2)cc1O please
A) 8

====

Kindly supply the reported MIC values for the records listed here.
EXPERIMENTAL_SYSTEM: Multidrug efflux pump subunit AcrB (Escherichia coli (strain K12))
METHOD_NOTES: Inhibition of AcrB in Escherichia coli BW25113 assessed as potentiation of tetraphenylphosphonium induced antibacterial activity by measuring tetraphenylphosphonium MIC at 32 ug/ml measured after 18 hrs by checkerboard titration method (reference value: 1024 ug/ml)
CONDITION_NOTES: dose 32.0 µg/ml
Output spec: scalar in mg/L, unitless text.

Q) Need MIC, item O=C(NCCc1ccc(O)c(O)c1)c1ccc(Br)cc1
A) 1020

Q) // same read-out, input: Oc1ccc(CCCCc2cc(O)c(O)c(O)c2)cc1O
A) 512

Q) Again, but for Cc1ccc(C(=O)NCCc2ccc(O)c(O)c2)cc1
A) 1020

Q) Try this compound too: Oc1ccc(CCCCc2ccccc2O)cc1O
A) 512

Q) Then what about the compound C[C@H](Cc1ccc(O)c(O)c1)[C@@H](C)Cc1ccc(O)c(O)c1 ?
A) 1020

Q) Another compound to look at: O=C(NCCc1ccc(O)c(O)c1)c1cc(O)c(O)c(O)c1
A) 512

====

Could you please report measured MIC for the items listed next?
EXPERIMENTAL_SYSTEM: Multidrug efflux pump subunit AcrB (Escherichia coli (strain K12)) (UniProt P31224)
Sequence (P31224 whole entry): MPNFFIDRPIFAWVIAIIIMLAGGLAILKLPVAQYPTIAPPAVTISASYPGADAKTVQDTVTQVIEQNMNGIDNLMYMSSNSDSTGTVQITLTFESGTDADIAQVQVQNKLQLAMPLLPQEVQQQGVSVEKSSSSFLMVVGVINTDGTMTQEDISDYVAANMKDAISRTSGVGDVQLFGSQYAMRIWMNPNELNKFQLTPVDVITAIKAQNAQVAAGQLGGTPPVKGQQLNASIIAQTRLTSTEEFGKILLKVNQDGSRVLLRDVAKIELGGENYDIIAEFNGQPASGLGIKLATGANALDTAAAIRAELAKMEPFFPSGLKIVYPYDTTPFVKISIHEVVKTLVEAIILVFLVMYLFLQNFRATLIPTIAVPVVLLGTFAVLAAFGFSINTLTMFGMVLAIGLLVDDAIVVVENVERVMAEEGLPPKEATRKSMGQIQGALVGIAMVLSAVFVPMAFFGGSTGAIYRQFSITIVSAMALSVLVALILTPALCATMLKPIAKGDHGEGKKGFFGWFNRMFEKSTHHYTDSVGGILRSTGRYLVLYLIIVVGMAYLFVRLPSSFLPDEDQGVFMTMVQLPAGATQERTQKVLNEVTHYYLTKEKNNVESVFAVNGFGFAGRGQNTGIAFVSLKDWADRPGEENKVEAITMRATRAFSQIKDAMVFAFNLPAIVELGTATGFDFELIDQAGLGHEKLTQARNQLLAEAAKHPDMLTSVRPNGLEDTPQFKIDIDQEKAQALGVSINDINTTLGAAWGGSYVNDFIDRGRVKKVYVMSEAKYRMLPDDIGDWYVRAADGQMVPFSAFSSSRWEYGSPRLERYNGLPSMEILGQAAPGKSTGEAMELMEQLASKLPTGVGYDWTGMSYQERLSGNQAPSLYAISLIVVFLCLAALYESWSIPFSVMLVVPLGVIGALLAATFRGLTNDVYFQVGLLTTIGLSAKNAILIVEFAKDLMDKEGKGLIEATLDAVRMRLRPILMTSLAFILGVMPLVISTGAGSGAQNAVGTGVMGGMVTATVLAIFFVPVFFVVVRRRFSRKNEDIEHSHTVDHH
METHOD_NOTES: Inhibition of AcrB in Escherichia coli BW25113 assessed as potentiation of tetraphenylphosphonium induced antibacterial activity by measuring tetraphenylphosphonium MIC at 32 ug/ml measured after 18 hrs by checkerboard titration method (reference value: 1024 ug/ml)
CONDITION_NOTES: dose 32.0 µg/ml
Respond with the figure and its unit, in that order.

Q) Item O=C(NCCc1ccc(O)c(O)c1)c1ccccc1O with Multidrug efflux pump subunit AcrB (Escherichia coli (strain K12)) (UniProt P31224) - MIC?
A) 1020 µg/mL

Q) Next molecule: Oc1ccc(CCCCCc2ccc(O)c(O)c2)cc1O
A) 1020 µg/mL

Q) // repeat for Oc1ccc(CCCCc2ccc(O)c(O)c2)cc1O and report
A) 1020 µg/mL

Q) // same read-out, input: Oc1ccc(CCCCc2ccc(Cl)cc2)cc1O
A) 1020 µg/mL

Q) # repeat for Nc1cc(N)cc(C(=O)NCCc2ccc(O)c(O)c2)c1
A) 512 µg/mL

Q) Then this molecule: Oc1ccc(CCCCc2cc3cccc4ccc5cccc2c5c43)cc1O
A) 512 µg/mL

Q) Query O=C(NCCc1ccc(O)c(O)c1)c1ccc(O)c(O)c1 next
A) 512 µg/mL
